Values compiled from patent US9174988B2.

Each entry below carries its recorded CC50 at 72 h.
# test: XTT cytotoxicity assay (CC50)
# Format: cell-based
# condition-info: human, CC50
Use µM as the unit, but write only the number.

Solved entries (count: 2):
Problem: Query: CC50 at 72 h; subject: C=CCN1c2ccccc2[C@]23CCC(=O)N(Cc4cc(OC)c(OC)c(OC)c4)C2=NC(C(=O)OC)=C(C(=O)OC)C13 (mixture of isomers) [Compound 17]
Result: 5.3

Problem: Fill blank: measured CC50 at 72 h of the compound COc1ccc2c(O[C@@H]3C[C@H]4C(=O)N[C@]5(C(=O)O)C[C@H]5/C=C\CCCCC[C@H](NC(=O)OC5CCCC5)C(=O)N4C3)cc(-c3csc(NC(C)C)n3)nc2c1 [BILN2061, reference compound] is ____.
Result: 5.3

Field: next compound
Problem: Record request: CC50 at 72 h value, item C=CCN1c2ccccc2[C@]23CCC(=O)N(Cc4ccccc4)C2=NC(C(=O)OC)=C(C(=O)OC)C13 (mixture of isomers) [Compound 16]
Result: 127

====

# target-entity: core106 (HCV core protein domain) dimerization (Hepatitis C virus genotype 1a)
# Construct: a core106 protein domain was tagged with either Glutathione-S-transferase (GST) tag or a Flag peptide tag
# Sequence (P27958 2-106): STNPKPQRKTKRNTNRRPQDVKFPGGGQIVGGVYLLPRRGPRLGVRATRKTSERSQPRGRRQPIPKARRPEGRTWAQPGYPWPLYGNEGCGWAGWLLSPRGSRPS
# test: Core106 ALPHA screen (AlphaScreen) core dimerization assay
# Assay type: binding
# condition-info: inhibition of core dimerization; see FIG. 17; Table 2; read-out: IC50
Entries and their IC50 values follow.
Give just the number in nM; leave the unit off.

Some entries whose results are on file:
Problem: Record lookup: for core106 (HCV core protein domain) dimerization (Hepatitis C virus genotype 1a), what IC50 belongs to COC(=O)C1=C(C(=O)OC)C2N(C)c3ccc(OC)cc3[C@@]23C[C@@H](C(=O)OC)N(C(=O)CC(C)C)C3=N1 (single isomer, unassigned) [Compound 1] ?
Result: 9300

Problem: API: value(readout= IC50, system= core106 (HCV core protein domain) dimerization (Hepatitis C virus genotype 1a), query= CC#CCN1c2ccccc2[C@]23CCC(=O)N(CCOC)C2=NC(C(=O)OC)=C(C(=O)OC)C13 (mixture of isomers) [Compound 15] )
Result: 2000

Problem: Which measured IC50 belongs to C=CCN1c2ccccc2[C@]23CCC(=O)N(Cc4cc(OC)c(OC)c(OC)c4)C2=NC(C(=O)OC)=C(C(=O)OC)C13 (mixture of isomers) [Compound 17] , tested on core106 (HCV core protein domain) dimerization (Hepatitis C virus genotype 1a)?
Result: 2000

Others:
Problem: Form entry - test system: core106 (HCV core protein domain) dimerization (Hepatitis C virus genotype 1a); read-out: IC50; compound: C=CCN1c2ccccc2[C@]23CCC(=O)N(Cc4ccccc4)C2=NC(C(=O)OC)=C(C(=O)OC)C13 (mixture of isomers) [Compound 16]
Result: 1400

====

# target-entity: core106 (HCV core protein domain) dimerization (Hepatitis C virus genotype 1a)
# Construct: a core106 protein domain was tagged with either Glutathione-S-transferase (GST) tag or a Flag peptide tag
# test: Core106 ALPHA screen (AlphaScreen) core dimerization assay
# Type: binding
# condition-info: AlphaScreen; read-out: IC50 for inhibition of core dimerization
Measured IC50, listed per entry.
Respond numerically; units are µM and should not be typed.

Consider the reported IC50 for these compounds:
Problem: Recall the recorded IC50 for C=CCN1c2ccccc2[C@]23CCC(=O)N(Cc4ccccc4)C2=NC(C(=O)OC)=C(C(=O)OC)C13 (mixture of isomers) [Compound 16] with core106 (HCV core protein domain) dimerization (Hepatitis C virus genotype 1a) and state it.
Result: 1.4

Problem: Missing value: IC50, core106 (HCV core protein domain) dimerization (Hepatitis C virus genotype 1a), entry COC(=O)[C@@H]1C[C@@]23C(=NC(c4ccc([N+](=O)[O-])cc4)=C(C(F)(F)F)C2N(C)c2ccccc23)N1C(C)=O (stereo partly shown) [Compound 22a] . Fill in?
Result: 5.6

Problem: Param readout = IC50; param system = core106 (HCV core protein domain) dimerization (Hepatitis C virus genotype 1a); param query = COC(=O)C1=C(C(=O)OC)C2N(CCCCCn3cc(-c4ccc(OC)cc4C)nn3)c3ccccc3[C@@]23CCC(=O)N(Cc2ccccc2)C3=N1 (stereo partly shown) [Compound 27] ; response: value
Result: 0.092

Let us examine a further case.
Problem: Give core106 (HCV core protein domain) dimerization (Hepatitis C virus genotype 1a) IC50 for COC(=O)C1=C(C(=O)OC)C2N(C)c3ccc(OC)cc3[C@@]23C[C@@H](C(=O)OC)N(C(=O)CC(C)C)C3=N1 (single isomer, unassigned) [Compound 1]
Result: 5.7
